Catalogue of GI50 values
- System: NCI-H522 lung
- Experiment Description: NCI tumour cell line growth inhibition, 48 h

The cases that follow already have their GI50 on record.
Compound	GI50
NNc1ncnc2nc[nH]c12	1830 nM
CCN(CCNS(C)(=O)=O)c1ccc(N)c(C)c1	2000 nM
COc1cc(/C=C2\CCCCC3=C2N=C2SC(C)=CN2C3c2cc(OC)c(OC)c(OC)c2)cc(OC)c1OC (configuration not stated)	1320 nM
O=c1cccc(C#CC#C[C@@H]2O[C@H]2CO)o1	814 nM
C=C(C)C(C1C=C(CCC(C=O)=C(C)C)C(=O)O1)C1(OC)C=C(C)C(=O)O1 (configuration not stated)	> 100000 nM
CO[C@@H]1CC[C@]2(C)OC[C@H](C)[C@@H]3C[C@@H](C)[C@@H](OC(C)=O)[C@@H]4[C@H]3[C@@H]2O[C@H]4C[C@@]1(C)O	> 100000 nM

Query compound follows.
Q. Supply recorded GI50 for COc1ccc(-c2cc(=O)oc3c4c(ccc23)OCN(Cc2ccc(F)cc2)C4)cc1 here.
A. 16600 nM

* * *

// reported TGI for each item listed
- Test system: SNB-19 CNS
- Experiment Description: NCI tumour cell line growth inhibition, 48 h

// below: answered molecules
Molecule	TGI
O=C(NCCCl)O/N=C/c1cccnc1	> 100 µM
O=C(O)C(O)C(O)C(O)C(O)CO (stereo unspecified)	> 100 µM
CC(C)N1CCN(c2ccc(OCC3COC(Cn4cncn4)(c4ccc(Cl)cc4Cl)O3)cc2)CC1 (stereo unspecified)	> 57.4 µM
COC(=O)/C=C/c1cc(OC(C)=O)c2c(c1)C(C(=O)OC)C(c1ccc(OC(C)=O)c(OC(C)=O)c1)O2 (stereo unspecified)	> 100 µM
Cc1cc(C[C@H]2O[C@@H]3OC(C)(C)O[C@@H]3[C@H]3OC(C)(C)O[C@H]32)c2ccccc2n1	> 100 µM

Q. Answer with the recorded TGI for the molecule listed here: O=C1C(=Nc2ccc(Nc3ccccc3)cc2)Oc2ccccc21
A. 8.25 µM

Q. Answer with the recorded TGI for the molecule listed here: CN(C)Cc1cc(C(=O)/C=C/c2ccc([N+](=O)[O-])cc2)cc(CN(C)C)c1O
A. > 100 µM

Q. Output measured TGI for this item: COc1cc(O)c2c(=O)c(OC)c(-c3ccc(OC)c(O)c3)oc2c1
A. > 100 µM

Q. Quote TGI reported for COCOCCC#CCO please.
A. > 100 µM

Q. Tell me its TGI given Clc1ccc(C=NC23CC4CC(CC(C4)C2)C3)c(Cl)c1 as the entry.
A. > 10 µM

Q. Supply reported TGI belonging to this molecule: C=C(C)C(C1C=C(CCC(C=O)=C(C)C)C(=O)O1)C1(OC)C=C(C)C(=O)O1 (stereo unspecified)
A. > 100 µM

* * *

- Tested on: HL-60(TB) leukemia
- Experiment Description: NCI tumour cell line growth inhibition, 48 h
Recorded Endpoint: TGI (µM)
Just the number in µM, nothing appended.

Compound	TGI / µM
CCCCCCn1c(-c2ccc(C(=O)O/N=C(\N)c3ccc4c(c3)OCO4)cc2)nc(-c2ccccc2)c1-c1ccccc1	3.49

Please examine the following record next.
Q. State, in one line, measured TGI of OC(C#CCN1CCCC1)(c1ccccc1)c1ccccc1Cl (stereo not given)
A. 68.3

* * *

# TGI values compiled below
- Tested on: HOP-62 NSCLC
- Experiment Description: NCI tumour cell line growth inhibition, 48 h

Guide cases for TGI, answers given:
Compound	TGI
CNc1[nH]c(=S)nc2sc3c(c12)CCCC3	> 75 µM
O=[N+]([O-])c1cc2oc(CSc3ccccc3)nc2cc1Cl	> 100 µM
O=C1C=C(c2c(O)ccc3ccccc23)c2cc(O)ccc2C1=O	35.4 µM
COC(=N)c1csc(C2OC(CO)C(O)C2O)n1 (stereo unspecified)	> 100 µM
CCOC(=O)CC/C(=N/Nc1ccc(Cl)cc1[N+](=O)[O-])C(=O)OCC	> 100 µM
CCCCCCCCSC1=C(Cl)C(=O)C(OC)=C(OC)C1=O	51.7 µM
CC1(C)C=CC(=O)C(O)C(C)(C)C1=O (stereo unspecified)	> 100 µM
O=C1c2cccc3cccc(c23)C(=O)N1CCN(CCO)CCO	> 100 µM

Q. Write TGI of CC(C)(C)OC(=O)NC(CSSCC(NC(=O)OC(C)(C)C)C(=O)O)C(=O)O (stereo unspecified) ; system used: HOP-62 NSCLC
A. > 100 µM

Q. For HOP-62 NSCLC, give the measured TGI of the entry [N-]=[N+]=NC1(c2ccccc2)C(=O)c2cccc3c2N(CCC3)C1=O (stereo unspecified)
A. > 100 µM

Q. Please indicate recorded TGI of CCC(C)(C)n1c(C)nc2c1C(=O)c1ccccc1C2=O measured with HOP-62 NSCLC.
A. > 100 µM

* * *

- Test system: NCI-H226 lung
- Experiment Description: NCI tumour cell line growth inhibition, 48 h; in the data active = GI50 below about 0.43 µM; inactive = the rest
Select the matching outcome among active, inactive

Here's what some known entries look like.
Compound	Class Name
COc1ccc(Cl)cc1NC(=O)c1ccc(NC2=C(Cl)C(=O)N(Cc3ccccc3)C2=O)cc1	inactive
CCN(Cc1c(F)cccc1OC)c1ccc(CO)c(Cl)c1	active
CN(C)CCN1CCC(Cc2ccccc2)CC1	inactive
CCOC(=O)Nc1c(C)nc2ccccn12	inactive

Q. Give the logged outcome of this assay for the following compound: Cc1nc2sccn2c1-c1nc2sccn2c1/C=C1/C(=O)Nc2ccccc21
A. inactive

Q. Record request — test call for Cc1cccc(NC2=C(Cl)C(=O)c3nc(C)ccc3C2=O)c1
A. inactive

Q. Hi team, can someone confirm the assay call for C=C(CN(C)Cc1ccccc1)c1ccc(NC(=O)c2ccc(C(=C)CN(C)Cc3ccccc3)cc2)cc1 ?
A. inactive

Q. Kindly provide the recorded test outcome for the following compound: C[C@H](CCOc1cccc(CC(=O)O)c1)N(Cc1cccc(C(F)(F)F)c1Cl)CC(c1ccccc1)c1ccccc1
A. inactive

Q. // return assay outcome for COc1nc(=O)n(C2C=CC(=O)O2)cc1F (configuration not stated)
A. inactive

Q. How did this test come out for O=C(Nc1nc(-c2c[nH]c3ccccc23)cs1)c1n[nH]c(=O)c2ccccc12 ?
A. inactive

Q. Can you look up the reported call for CCCCCCn1c(-c2ccc(C(=O)O/N=C(\N)c3ccc4c(c3)OCO4)cc2)nc(-c2ccccc2)c1-c1ccccc1 for me?
A. inactive

Q. Please state the recorded outcome for this compound: COc1cc2c(cc1OCCCCCN1CCN(c3ncnc4ccccc34)CC1)N=CC1CCCN1C2=O (configuration not stated)
A. active

* * *

- Test system: A498 renal
- Experiment Description: NCI tumour cell line growth inhibition, 48 h
// TGI lookup, one value per entry

Below, 5 compounds whose answers are already recorded.
Compound	TGI
CNc1cc2oc(=O)cc(C)c2cc1C	> 100 µM
O=[N+]([O-])c1cc2oc(CSc3ccccc3)nc2cc1Cl	59.2 µM
Cc1nc2c(N)ncnc2o1	> 100 µM
Cc1cc(C[C@H]2O[C@@H]3OC(C)(C)O[C@@H]3[C@H]3OC(C)(C)O[C@H]32)c2ccccc2n1	> 100 µM
C=C1C(=O)[C@@]23CC[C@@H]4[C@@]5(C)CCC[C@@]4(OC5=O)[C@@]2(C)CC[C@@H]1C3	11.8 µM

Q. Answer with reported TGI of CN1Cc2c(nc(-c3ccccc3)c[n+]2[O-])N(C)C1
A. > 100 µM

Q. Please give measured TGI of the following entry: CCCCCCn1c(-c2ccc(C(=O)O/N=C(\N)c3ccc4c(c3)OCO4)cc2)nc(-c2ccccc2)c1-c1ccccc1
A. 3.86 µM

Q. Give TGI for the following compound: O=[N+]([O-])c1ccccc1N=Nc1c(O)[nH]c2c(Cl)cc(Cl)cc12
A. > 100 µM

Q. Query TGI for Clc1ccc(C=NC23CC4CC(CC(C4)C2)C3)c(Cl)c1
A. > 10 µM

Q. Give a short answer stating reported TGI for Cc1cc(OP2(=O)NCc3ncccc3O2)ccc1Cl (stereo unspecified) .
A. > 100 µM

Q. Note TGI for the compound shown: COC1OC2COC(c3ccccc3)OC2C(O)C1OC(=S)c1ccccc1 (stereo unspecified)
A. > 100 µM

* * *

- System: SNB-19 CNS
- Experiment Description: NCI tumour cell line growth inhibition, 48 h
Listed next: entries and their corresponding TGI.

COc1cc(OC)c(OC)cc1/C=N/NC(=O)N/N=C/c1cc(OC)c(OC)cc1OC > 100 µM

Q. Retrieve TGI measured for Nc1c(C(=O)Nc2ccccn2)sc2nc3c(cc12)C(=O)CCC3 and print it.
A. > 100 µM

Q. Quote TGI reported for O=C(c1ccc([N+](=O)[O-])cc1[N+](=O)[O-])N(/N=C/C=C/c1ccccc1)c1nnc(-c2ccccc2)c(-c2ccccc2)n1 please.
A. > 100 µM

Q. Please look at this compound and report its TGI: COc1ccc(Cl)cc1NC(=O)c1ccc(NC2=C(Cl)C(=O)N(Cc3ccccc3)C2=O)cc1
A. > 100 µM

Q. # return recorded TGI for entry O=C1C=C(c2c(O)ccc3ccccc23)c2cc(O)ccc2C1=O
A. 31.3 µM
